The reported numbers originate from PubChem BioAssay AID1963969.

test system: 817829-284-R-J1-PDC multi-cell spheroid viability; assay: Anticancer human tumor 817829-284-R-J1-PDC patient-derived colon adenocarcinoma cell line growth inhibition [PI3K]; settings: second compound 0.01 µM; first compound 3.16 µM; stronger effect = lower value
Reported viability, T/C is given for each of the following compounds.
parameterMeasured: viability, T/C (%)

compound: CC1(C)CCC(Nc2ncc(C(F)(F)F)c(-c3c[nH]c4c(P(C)(C)=O)c(C#N)ccc34)n2)CN1 (centres undefined) + CC(Nc1ccc2c(c1)OCCn1cc(N3C(=O)OCC3C(F)F)nc1-2)C(N)=O
targetOrTestSystem: 817829-284-R-J1-PDC multi-cell spheroid viability;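 further: spheroids exposed to agents for seven days before readout; percent of vehicle DMSO control viability which is 100%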
parameterMeasured: viability, T/C
resultUnits: %
measuredResult: 26.4
//
compound: CCCS(=O)(=O)Nc1ccc(F)c(C(=O)c2c[nH]c3ncc(-c4ccc(Cl)cc4)cc23)c1F + COc1c(OCCCN2CCOCC2)ccc2c3n(c(=NC(=O)c4cnc(N)nc4)nc12)CCN3
targetOrTestSystem: 817829-284-R-J1-PDC multi-cell spheroid viability;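 further: spheroids exposed to agents for seven days before readout; percent of vehicle DMSO control viability which is 100%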
parameterMeasured: viability, T/C
resultUnits: %
measuredResult: 64.1
//
compound: C[C@@H](NC(=O)c1ncnc(N)c1Cl)c1ncc(C(=O)Nc2cc(C(F)(F)F)c(Cl)cn2)s1 + COc1c(OCCCN2CCOCC2)ccc2c3n(c(=NC(=O)c4cnc(N)nc4)nc12)CCN3
targetOrTestSystem: 817829-284-R-J1-PDC multi-cell spheroid viability;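 further: spheroids exposed to agents for seven days before readout; percent of vehicle DMSO control viability which is 100%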
parameterMeasured: viability, T/C
resultUnits: %
measuredResult: 75.3
//
compound: CC1(C)CCC(CN2CCN(c3ccc(C(=O)NS(=O)(=O)c4ccc(NCC5CCOCC5)c([N+](=O)[O-])c4)c(Oc4cnc5[nH]ccc5c4)c3)CC2)=C(c2ccc(Cl)cc2)C1 + COc1c(OCCCN2CCOCC2)ccc2c3n(c(=NC(=O)c4cnc(N)nc4)nc12)CCN3
targetOrTestSystem: 817829-284-R-J1-PDC multi-cell spheroid viability;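 further: spheroids exposed to agents for seven days before readout; percent of vehicle DMSO control viability which is 100%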
parameterMeasured: viability, T/C
resultUnits: %
measuredResult: 66.2
